- Target Of Assay: Potassium channel subfamily K member 2 (Homo sapiens) (UniProt O95069)
- Sequence (O95069 whole entry): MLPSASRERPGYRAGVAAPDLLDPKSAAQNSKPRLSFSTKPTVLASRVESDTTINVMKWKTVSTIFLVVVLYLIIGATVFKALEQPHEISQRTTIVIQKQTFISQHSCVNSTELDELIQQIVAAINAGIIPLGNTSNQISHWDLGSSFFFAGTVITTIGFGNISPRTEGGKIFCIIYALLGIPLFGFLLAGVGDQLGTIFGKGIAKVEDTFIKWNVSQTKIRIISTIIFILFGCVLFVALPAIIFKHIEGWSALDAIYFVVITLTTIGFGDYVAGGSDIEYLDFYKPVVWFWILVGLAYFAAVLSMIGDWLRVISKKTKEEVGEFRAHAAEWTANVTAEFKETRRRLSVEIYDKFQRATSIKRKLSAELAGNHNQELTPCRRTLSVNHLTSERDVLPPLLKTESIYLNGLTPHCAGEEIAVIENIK
- Assay Remarks: Activation of TREK1 channel (unknown origin) expressed in Xenopus oocytes assessed as ratio of current in presence of compound to current in absence of compound at 20 uM incubated for 15 mins by two-microelectrode voltage-clamp technique
- Type: cell-based
Measured Property: log(ratio)

Compound: NC/C(=C\c1ccc(O)c(O)c1)C(=O)OC/C=C/c1ccccc1
Measured Property: log(ratio)
Endpoint Result: 0.104
--
Compound: CCC(/C=C/c1ccccc1)OC(=O)/C(C#N)=C/c1ccc(O)c(O)c1 (centres undefined)
Measured Property: log(ratio)
Endpoint Result: 0.017
--
Compound: CC(=O)Oc1ccc(/C=C(\C#N)C(=O)OC/C=C/c2ccccc2)cc1OC(C)=O
Measured Property: log(ratio)
Endpoint Result: -0.004
--
Compound: N#C/C(=C\c1ccc(O)c(O)c1)C(=O)OCC#Cc1ccccc1
Measured Property: log(ratio)
Endpoint Result: 0.344
